protocol.summary: Selectivity ratio of IC50 for human AChE to IC50 for equine BuChE
Listed here: items and their measured Ratio IC50.
API doc: respond with a numeric literal and nothing else, no unit.

Fc1ccc(CNc2ccnc(NC3CCN(Cc4ccccc4)CC3)n2)cc1: 3.5
COc1ccc(CNc2ccnc(NC3CCN(Cc4ccccc4)CC3)n2)cc1: 1.9
COc1ccc(CNc2ccnc(NC3CCN(Cc4ccccc4)CC3)n2)cc1OC: 0.9
COc1cc(CNc2ccnc(NC3CCN(Cc4ccccc4)CC3)n2)cc(OC)c1OC: 1.3
Brc1ccc(CNc2ccnc(NC3CCN(Cc4ccccc4)CC3)n2)cc1: 2.4

Ask: Record request: Ratio IC50 value, item Clc1ccc(CNc2ccnc(NC3CCN(Cc4ccccc4)CC3)n2)cc1
Result: 3.1

Ask: Record request: Ratio IC50 value, item Cc1ccc(CNc2ccnc(NC3CCN(Cc4ccccc4)CC3)n2)cc1
Result: 5.2

* * *

tested.system: Beta-secretase 1 (Homo sapiens, UniProt P56817)
Sequence (P56817 whole entry): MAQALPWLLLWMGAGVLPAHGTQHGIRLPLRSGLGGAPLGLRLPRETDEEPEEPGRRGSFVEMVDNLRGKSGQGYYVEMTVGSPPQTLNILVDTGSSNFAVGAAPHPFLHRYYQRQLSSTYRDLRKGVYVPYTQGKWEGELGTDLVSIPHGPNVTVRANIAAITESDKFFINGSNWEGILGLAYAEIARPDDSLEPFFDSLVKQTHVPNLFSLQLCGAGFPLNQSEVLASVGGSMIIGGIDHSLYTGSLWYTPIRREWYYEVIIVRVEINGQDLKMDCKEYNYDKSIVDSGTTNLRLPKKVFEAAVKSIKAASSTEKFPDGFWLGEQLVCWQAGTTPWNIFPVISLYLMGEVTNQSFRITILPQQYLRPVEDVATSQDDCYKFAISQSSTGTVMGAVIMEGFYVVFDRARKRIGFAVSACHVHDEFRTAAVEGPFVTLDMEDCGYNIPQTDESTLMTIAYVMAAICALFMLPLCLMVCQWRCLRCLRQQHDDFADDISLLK
pIC50: −log10 of the molar value. Peptide text beside a SMILES is read from it. * marks the point of attachment. Cbz = O=C(OCc1ccccc1)*
Response key: Satisfied means pIC50 >= 6; Not satisfied means pIC50 < 6.

Here are 3 molecules together with their reported answers.
Clc1cccc(CNc2ccnc(NC3CCN(Cc4ccccc4)CC3)n2)c1: Satisfied
COc1cc(CNc2ccnc(NC3CCN(Cc4ccccc4)CC3)n2)cc(OC)c1OC: Not satisfied
COc1ccc(CNc2ccnc(NC3CCN(Cc4ccccc4)CC3)n2)cc1: Satisfied

Ask: Item CC(C)C[C@@H](C=O)NC(=O)[C@H](CC(C)C)NC(=O)[C@@H](NC(=O)OCc1ccccc1)C(C)C (Cbz-Val-Leu-Leu-aldehyde) with pIC50 of 6 or above?
Result: Not satisfied

Ask: Item Clc1ccc(CNc2ccnc(NC3CCN(Cc4ccccc4)CC3)n2)cc1 with pIC50 of 6 or above?
Result: Not satisfied

Ask: Item Clc1ccccc1CNc1ccnc(NC2CCN(Cc3ccccc3)CC2)n1 with pIC50 of 6 or above?
Result: Not satisfied

Ask: Item Cc1ccc(CNc2ccnc(NC3CCN(Cc4ccccc4)CC3)n2)cc1 with pIC50 of 6 or above?
Result: Not satisfied

* * *

Data export: pIC50 values recorded with UniProt:P22303.
Expect pIC50 as a plain number equal to -log10 of the molar concentration.

Check out these entries, answers already filled in.
COc1ccc(CNc2ccnc(NC3CCN(Cc4ccccc4)CC3)n2)cc1OC: 5.00
Cc1ccc(CNc2ccnc(NC3CCN(Cc4ccccc4)CC3)n2)cc1: 4.89
Clc1cccc(CNc2ccnc(NC3CCN(Cc4ccccc4)CC3)n2)c1: 5.11
COc1cc(CNc2ccnc(NC3CCN(Cc4ccccc4)CC3)n2)cc(OC)c1OC: 4.99

Ask: So what pIC50 did COc1ccc(CNc2ccnc(NC3CCN(Cc4ccccc4)CC3)n2)cc1 get with UniProt:P22303?
Result: 5.03

* * *

Data export: IC50 values recorded with Acetylcholinesterase (Homo sapiens).
Sequence (P22303 whole entry): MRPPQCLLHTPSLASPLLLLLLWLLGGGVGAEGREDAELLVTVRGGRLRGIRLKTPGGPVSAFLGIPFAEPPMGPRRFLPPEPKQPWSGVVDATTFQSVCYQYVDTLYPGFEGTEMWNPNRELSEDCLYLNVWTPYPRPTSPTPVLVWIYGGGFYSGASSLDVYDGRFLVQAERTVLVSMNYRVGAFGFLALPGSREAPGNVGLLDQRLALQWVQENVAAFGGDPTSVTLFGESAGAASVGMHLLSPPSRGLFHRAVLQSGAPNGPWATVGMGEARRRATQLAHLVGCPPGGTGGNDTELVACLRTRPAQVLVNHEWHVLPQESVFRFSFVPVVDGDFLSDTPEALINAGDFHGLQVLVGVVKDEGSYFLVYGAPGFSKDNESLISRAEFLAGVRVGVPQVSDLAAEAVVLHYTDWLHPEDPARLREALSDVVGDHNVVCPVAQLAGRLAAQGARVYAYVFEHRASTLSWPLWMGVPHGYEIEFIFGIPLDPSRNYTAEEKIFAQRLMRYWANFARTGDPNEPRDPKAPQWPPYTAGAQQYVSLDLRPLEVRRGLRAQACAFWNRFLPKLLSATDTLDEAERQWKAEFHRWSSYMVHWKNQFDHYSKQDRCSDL

Fc1ccc(CNc2ccnc(NC3CCN(Cc4ccccc4)CC3)n2)cc1: 7.7 µM
c1ccc(CN2CCC(Nc3nccc(NCc4ccc5c(c4)OCO5)n3)CC2)cc1: 12.6 µM
Clc1ccc(CNc2ccnc(NC3CCN(Cc4ccccc4)CC3)n2)cc1: 8.8 µM

Ask: So what IC50 did Clc1ccccc1CNc1ccnc(NC2CCN(Cc3ccccc3)CC2)n1 get with Acetylcholinesterase (Homo sapiens)?
Result: 7.7 µM

Ask: So what IC50 did Brc1ccc(CNc2ccnc(NC3CCN(Cc4ccccc4)CC3)n2)cc1 get with Acetylcholinesterase (Homo sapiens)?
Result: 9.9 µM
